Kindly state selectivity ratio for each of the entries shown.
test: Selectivity ratio of HC50 for hemolytic activity in human RBC to MIC for antifungal activity against Mucor racemosus MZ140; format: toxicity; details: red blood cells (erythrocytes)

{"smiles.record": "CCCCCCCCCCCCCCCC(=O)N[C@@H](CCCN)C(=O)N[C@@H](Cc1ccccc1)CN(CC(N)=O)C(=O)CCN", "selectivity ratio": "≤ 125"}

Next compound, selectivity ratio to be filled in.
Give the measured selectivity ratio of CCCCCCCCCCCCCCCCCC(=O)N[C@@H](CCCCN)C(=O)N[C@@H](Cc1ccccc1)CN(CC(N)=O)C(=O)CCN .
≤ 125

###

test system: Cryptococcus deuterogattii; experiment: Antifungal activity against Cryptococcus gattii VGII R265 assessed as fungal growth inhibition by broth microdilution assay; assay type: functional, Cryptococcus gattii species complex
Kindly state MIC50 for each of the entries shown.
Your reply should be a number followed by the unit it is expressed in.

Here are 4 compounds together with their reported answers.
{"smiles.record": "CCCCCCCC/C=C\\CCCCCCCC(=O)N[C@@H](CCCCN)C(=O)N[C@@H](Cc1ccccc1)CN(CC(N)=O)C(=O)CCN", "target.desc": "Cryptococcus deuterogattii", "value.observed": "4 µg/mL"}
{"smiles.record": "OC(Cn1cncn1)(Cn1cncn1)c1ccc(F)cc1F", "target.desc": "Cryptococcus deuterogattii", "value.observed": "4 µg/mL"}
{"smiles.record": "CCCCCCCCCCCCCCCC(=O)N[C@@H](CCCCN)C(=O)N[C@@H](Cc1ccccc1)CN(CC(N)=O)C(=O)CN", "target.desc": "Cryptococcus deuterogattii", "value.observed": "8 µg/mL"}
{"smiles.record": "CCCCCCCCCCCCCCCC(=O)N[C@@H](CCCCN)C(=O)N[C@@H](Cc1ccccc1)CN(CC(N)=O)C(=O)CCN", "target.desc": "Cryptococcus deuterogattii", "value.observed": "4 µg/mL"}

Respectfully, I request MIC50 for each entry included below.
1. CCCCCCCCCCCCCCCCCC(=O)N[C@@H](CCCCN)C(=O)N[C@@H](Cc1ccccc1)CN(CC(N)=O)C(=O)CCN
2. CCCCCCCCCCCCCCCC(=O)N[C@@H](CCCN)C(=O)N[C@@H](Cc1ccccc1)CN(CC(N)=O)C(=O)CCN

2 µg/mL
2 µg/mL

###

Kindly state MIC50 for each of the entries shown.
system: Cryptococcus neoformans; test: Antifungal activity against Cryptococcus neoformans H99 assessed as fungal growth inhibition by broth microdilution assay; format: functional
One number for each entry, in µg/mL.

{"smiles.record": "CCCCCCCC/C=C\\CCCCCCCC(=O)N[C@@H](CCCCN)C(=O)N[C@@H](Cc1ccccc1)CN(CC(N)=O)C(=O)CCN", "MIC50 / µg/mL": 4}
{"smiles.record": "CCCCCCCCCCCCCCCC(=O)N[C@@H](CCCN)C(=O)N[C@@H](Cc1ccccc1)CN(CC(N)=O)C(=O)CCN", "MIC50 / µg/mL": 2}
{"smiles.record": "CCCCCCCCCCCCCCCCCC(=O)N[C@@H](CCCCN)C(=O)N[C@@H](Cc1ccccc1)CN(CC(N)=O)C(=O)CCN", "MIC50 / µg/mL": 2}
{"smiles.record": "OC(Cn1cncn1)(Cn1cncn1)c1ccc(F)cc1F", "MIC50 / µg/mL": 4}

Respectfully, I request MIC50 for each entry included below.
1. CCCCCCCCCCCCCCCC(=O)N[C@@H](CCCCN)C(=O)N[C@@H](Cc1ccccc1)CN(CC(N)=O)C(=O)CN
2. CCCCCCCCCCCCCCCC(=O)N[C@@H](CCCCN)C(=O)N[C@@H](Cc1ccccc1)CN(CC(N)=O)C(=O)CCN

[8, 4]
